Target or system Plasmepsin I (Plasmodium falciparum, UniProt P39898); metric pIC50; compiled from varied reports.
pIC50: −log10 of the molar value.
parameter measured: pIC50

Record excerpt, results attached:
[
  {
    "molecule": "Nc1nc2cc(-c3ccccc3)ccc2c(=O)n1C[C@@H]1CCCO1 (racemic)",
    "measured on": "Plasmepsin I (Plasmodium falciparum, UniProt P39898)",
    "parameter measured": "pIC50",
    "experimental result": 5.22
  },
  {
    "molecule": "CCCN(CCC)C(=O)c1cc(C(=O)N[C@@H](Cc2ccccc2)[C@H](O)CNCc2cccc(OC)c2)cc(N2CCCCS2(=O)=O)c1",
    "measured on": "Plasmepsin I (Plasmodium falciparum, UniProt P39898)",
    "parameter measured": "pIC50",
    "experimental result": 4.74
  },
  {
    "molecule": "CCCN(CCC)C(=O)c1cc(C(=O)N[C@@H](Cc2ccccc2)[C@H](O)CNC(C)(C)c2cccc(O)c2)cc(N2CCCCC2)c1",
    "measured on": "Plasmepsin I (Plasmodium falciparum, UniProt P39898)",
    "parameter measured": "pIC50",
    "experimental result": 6.44
  },
  {
    "molecule": "COc1cccc(C(C)(C)NC[C@@H](O)[C@H](Cc2ccccc2)NC(=O)c2cc(C(=O)N3CCCC3)cc(N3CCCCC3)c2)c1",
    "measured on": "Plasmepsin I (Plasmodium falciparum, UniProt P39898)",
    "parameter measured": "pIC50",
    "experimental result": 5.80
  },
  {
    "molecule": "COC(=O)CCc1ccc(-c2ccc3c(=O)n(C[C@@H]4CC[C@H](c5ccccc5)O4)c(N)nc3c2)cc1 (racemic)",
    "measured on": "Plasmepsin I (Plasmodium falciparum, UniProt P39898)",
    "parameter measured": "pIC50",
    "experimental result": 6.57
  }
]

P = CCCN(CCC)C(=O)c1cc(C(=O)N[C@@H](Cc2ccccc2)[C@H](O)CNC(C)(C)c2cccc(OC)c2)cc(N2CCCCS2(=O)=O)c1
Q = CC(C)C[C@H](NC(=O)CC1CCCCC1)[C@@H](O)[C@H](O)[C@H](CC(C)C)NC(=O)CC1CCCCC1
Asked: Of the pair P and Q , name the member with the lesser recorded pIC50. Give the label of your selection.
Given back: Q
(Q: 5.58, P: 6.15)
